Origin of values: ChEMBL document CHEMBL5154705

Assay: AUC(0 to infinity) in cynomolgus monkey at 0.3 to 1 mg/kg, po
Format: ADME, organism-based, Macaca fascicularis
Design: route po
Conditions: in vivo, dose 0.3-1 mg/kg
# AUC(0-inf) per entry
Experimental Endpoint: AUC(0-inf) (ng·h/mL)

{"columns": ["Compound String", "Readout Unit", "Assay Result"],
 "data": [
  ["Cc1ccc(-c2nc(=O)o[nH]2)c(-c2ccc([C@@H](C)N(CC3CC3)c3nc(C(=O)NS(=O)(=O)C4CC4)c(C)s3)cc2)c1", "ng·h/mL", 12500],
  ["Cc1ccc(-c2nc(=O)o[nH]2)c(-c2ccc([C@@H](C)N(CC3CC3)c3nc(C(=O)NS(=O)(=O)C4CC4)c(CC(C)C)s3)cc2)c1", "ng·h/mL", 21900],
  ["COCCc1sc(N(CC2CC2)[C@H](C)c2ccc(-c3cc(C)ccc3-c3nc(=O)o[nH]3)cc2)nc1C(=O)NS(=O)(=O)C1CC1", "ng·h/mL", 12800]
]}

---

Test: Drug concentration in plasma of cynomolgus monkey at 30 mg/kg, po after 4 hrs
Assay type: ADME, organism-based, Macaca fascicularis
Experimental Endpoint: concentration at 4 h (µM)

{"columns": ["Compound String", "Assay Result"],
 "data": [
  ["Cc1ccc(-c2nc(=O)o[nH]2)c(-c2ccc([C@@H](C)N(CC3CC3)c3nc(C(=O)NS(=O)(=O)C4CC4)c(C4CC4)s3)cc2)c1", 332]
]}

---

Target: UniProt Q99788
Details: CAL1
Description: Inhibition of human ChemR23 expressed in CAL-1 cells assessed as reduction in chemerin-induced calcium signaling

{"columns": ["Compound String", "Inequality Symbol", "IC80 [nM]"],
 "data": [
  ["Cc1ccc(-c2nc(=O)o[nH]2)c(-c2ccc([C@@H](C)N(CC3CC3)c3nc(C(=O)NS(=O)(=O)C4CC4)c(-c4cccnc4)s3)cc2)c1", "=", 39],
  ["COCCc1sc(N(CC2CC2)[C@H](C)c2ccc(-c3cc(C)ccc3-c3nc(=O)o[nH]3)cc2)nc1C(=O)NS(=O)(=O)C1CC1", "=", 33],
  ["CNC(=O)c1ccc(C)cc1-c1ccc([C@@H](C)N(CC2CC2)c2nc(C(=O)NS(=O)(=O)C3CC3)c(C3CC3)s2)cc1", "=", 57],
  ["Cc1sc(N(CC2CC2)[C@H](C)c2ccc(-c3cc(Cl)ccc3-c3nc(=O)o[nH]3)cc2)nc1C(=O)NC1CC1", ">", 330],
  ["Cc1ccc(-c2nc(=O)o[nH]2)c(-c2ccc([C@@H](C)N(CC3CC3)c3nc(C(=O)NS(=O)(=O)C4CC4)c(-c4ccncc4)s3)cc2)c1", "=", 74],
  ["C[C@H](c1ccc(-c2cc(Cl)ccc2C(=O)O)cc1)N(CC1CC1)c1nc(C(=O)NS(=O)(=O)C2CC2)c(C2CC2)s1", "=", 24],
  ["Cc1ccc(-c2nc(=O)o[nH]2)c(-c2ccc([C@@H](C)N(CC3CC3)c3nc(C(=O)NS(=O)(=O)C4CC4)c(-c4ccsc4)s3)cc2)c1", ">", 330]
]}

---

# pEC50 per entry
Target: Chemerin-like receptor 1 (Homo sapiens, UniProt Q99788)
Sequence (Q99788 whole entry): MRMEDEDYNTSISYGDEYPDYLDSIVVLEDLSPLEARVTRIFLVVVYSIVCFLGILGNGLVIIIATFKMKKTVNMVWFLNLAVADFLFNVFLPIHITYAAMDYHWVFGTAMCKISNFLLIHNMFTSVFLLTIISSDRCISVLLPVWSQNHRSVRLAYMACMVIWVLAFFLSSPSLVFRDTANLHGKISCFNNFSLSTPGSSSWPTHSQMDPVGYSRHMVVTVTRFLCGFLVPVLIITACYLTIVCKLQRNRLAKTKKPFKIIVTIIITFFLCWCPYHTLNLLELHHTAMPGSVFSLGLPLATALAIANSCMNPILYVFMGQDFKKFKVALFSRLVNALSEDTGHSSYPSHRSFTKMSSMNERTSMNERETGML
Experiment: Inhibition of human ChemR23 expressed in CAL-1 cells assessed as receptor internalization
Format: functional, cell-based, CAL1
pEC50: −log10 of the molar value.
Experimental Endpoint: pEC50

{"columns": ["Compound String", "Experimental Endpoint", "Assay Result"],
 "data": [
  ["C[C@H](c1ccc(-c2cc(Cl)ccc2C(=O)NCCOCCOCCOCCOCCOCCOCCN=[N+]=[N-])cc1)N(CC1CC1)c1nc(C(=O)NS(=O)(=O)C2CC2)c(C2CC2)s1", "pEC50", 7.66],
  ["C[C@H](c1ccc(-c2cc(Cl)ccc2C(=O)NCCOCCOCCOCCOCCOCCOCCOCCOCCOCCOCCOCCOCCOCCOCCOCCOCCOCCOCCOCOCCOCCOCCOCCN=[N+]=[N-])cc1)N(CC1CC1)c1nc(C(=O)NS(=O)(=O)C2CC2)c(C2CC2)s1", "pEC50", 6.42]
]}
